For reference, the following pIC50 results for Proto-oncogene tyrosine-protein kinase Src (Homo sapiens, UniProt P12931) were taken from various sources.
pIC50: −log10 of the molar value.

molecule	pIC50
C#Cc1cccc(-c2nc(-c3c(Cl)cccc3Cl)[nH]c2-c2ccnc(Nc3ccc(OCCO)cc3)n2)c1	7.48
CS(=O)(=O)Nc1ccc(F)c(C(=O)c2c[nH]c3ncc(-c4cccc(C(N)=O)c4)cc23)c1F	≥ 5.00

Exercise: Recorded pIC50 of Cc1cccc(Nc2ncnc(Nc3ccc4[nH]ccc4c3)n2)c1 , please.
Key: > 5.90

Exercise: Recorded pIC50 of C=CC(=O)N1CCC(C#Cc2c(-c3ccc(Nc4cccc(C)n4)cc3)c3c(N)ncnc3n2C(C)C)CC1 , please.
Key: 6.00 to 8.00

Exercise: Recorded pIC50 of C=CC(=O)N1CCC(C#Cc2c(-c3ccc(Oc4cccc(Cl)c4)cc3)c3c(N)ncnc3n2C(C)C)CC1 , please.
Key: 6.00 to 8.00

Exercise: Recorded pIC50 of CC(C)(C)c1cc(NC(=O)Nc2ccc(OCc3ccnc(Nc4cncc(C5CC5)n4)c3)c3ccccc23)n(-c2ccc(O)cc2)n1 , please.
Key: 7.74

Exercise: Recorded pIC50 of CCCS(=O)(=O)Nc1ccc(F)c(C(=O)c2c[nH]c3ncc(-c4ccc(N)nc4)cc23)c1F , please.
Key: ≥ 5.00

Exercise: Recorded pIC50 of COc1cc(Nc2nc3c(NCCCN4CCOCC4)nccn3n2)cc(OC)c1 , please.
Key: 4.30 to 5.52

Exercise: Recorded pIC50 of CCCS(=O)(=O)Nc1ccc(F)c(C(=O)c2c[nH]c3nccc(C#N)c23)c1F , please.
Key: ≥ 5.00

Exercise: Recorded pIC50 of CC(C)OC(=O)Nc1cnc2[nH]c(-c3cccc(S(C)(=O)=O)c3)nc2c1 , please.
Key: 6.30 to 8.00

Exercise: Recorded pIC50 of C=CS(=O)(=O)NC1CCC(C#Cc2c(-c3ccc(Oc4ccccc4)cc3)c3c(N)ncnc3n2C(C)C)CC1 (stereo not drawn) , please.
Key: ≥ 8.00

Exercise: Recorded pIC50 of O=C(Nc1cnc(Nc2ccc(OCCN3CCCC3)cc2)nc1)c1cc(NC(=O)C2CCCCC2)ccc1Cl , please.
Key: 7.71

Exercise: Recorded pIC50 of COc1cc(Nc2cc(Oc3ccc(NC(=O)Nc4cc(C(C)(C)C)cc(CC(N)=O)c4OC)c4ccccc34)ccn2)cc(OC)c1 , please.
Key: 7.22

Exercise: Recorded pIC50 of Cc1ccc(-n2nc(C(C)(C)C)cc2NC(=O)Nc2ccc(OCc3ccnc(Nc4cnc(C(=O)N5CCOCC5)cn4)c3)c3ccccc23)cc1 , please.
Key: 7.29

Exercise: Recorded pIC50 of COc1ncnc2[nH]cc(Cc3ccc(NCc4cnccc4C(F)(F)F)nc3F)c12 , please.
Key: ≥ 5.00

* * *

For reference, the following IC50 results for Proto-oncogene tyrosine-protein kinase Src (Homo sapiens) were taken from various sources.

compound	IC50
CCN(CC)CCOc1ccc(Nc2ncc3nc(-c4ccccc4)c(=O)n(C)c3n2)cc1	1.53 µM
O=C(Nc1ccc(Cl)c(C(=O)Nc2cnc(Nc3ccc(OC(=O)c4ccccc4)cc3)nc2)c1)c1cccc(C(F)(F)F)c1	0.647 µM
CCCS(=O)(=O)Nc1ccc(F)c(C(=O)c2c[nH]c3ncc(-c4ccc(OCCCN(C)C)nc4)cc23)c1F	≤ 10 µM
Nc1ncnc2c1c(-c1ccc(Oc3ccccc3)cc1)c(C#CC1CCN(C(=O)/C=C/CN3CCOCC3)CC1)n2[C@H]1CCOC1	0.01 to 1 µM
C=CC(=O)N1C[C@@H]2[C@@H](C#Cc3c(-c4ccc(Oc5cccc(C)n5)c(OC)c4)c4c(N)nccc4n3CCOC)[C@@H]2C1	1 to 10 µM
COc1cc(Nc2ncnc(Nc3ccc4[nH]ccc4c3)n2)cc(OC)c1OC	< 1.02 µM

Exercise: Value wanted: IC50 (Proto-oncogene tyrosine-protein kinase Src (Homo sapiens)) of entry C=CC(=O)N1CCC(N2CC(C#Cc3c(-c4ccc(Oc5ccccn5)c(OC)c4)c4c(N)ncnc4n3C)C2)C(S(C)(=O)=O)C1 (stereo not shown)
Key: 0.01 to 1 µM
